- TEST_TARGET: human recombinant 5-HT2A receptor (Homo sapiens (Human), UniProt P28223)
- TEST_PROTOCOL: Determination of Ki value at 5-HT2A receptor ([3H]-Ketanserine radioligand binding)
- MEASUREMENT_CONTEXT: [3H]-Ketanserine 1.75 nM, average of three independent experiments
Counter-ions that a name gives are not always drawn.
PROPERTY_LABEL: Ki

COMPOUND | RECORDED_MEASUREMENT
COc1ccc2c(c1)c(CN1CCN(C)CC1)cn2S(=O)(=O)c1ccc(F)cc1 [Compound 2, dihydrochloride] | > 10000 nM
COc1ccc2c(c1)c(CN1CCN(C)CC1)cn2S(=O)(=O)c1ccc(C(C)C)cc1 [Compound 3, dihydrochloride] | 926 nM
COc1ccc2c(c1)c(CN1CCN(C)CC1)cn2S(=O)(=O)c1ccccc1Br [Compound 1, dimesylate monohydrate] | 2510 nM
